Biological target: T1, TRAIL (human, UniProt P50591 114-281)
T1 construct: also called TNF-related apoptosis inducing ligand
T1 sequence (P50591 114-281 limits assumed): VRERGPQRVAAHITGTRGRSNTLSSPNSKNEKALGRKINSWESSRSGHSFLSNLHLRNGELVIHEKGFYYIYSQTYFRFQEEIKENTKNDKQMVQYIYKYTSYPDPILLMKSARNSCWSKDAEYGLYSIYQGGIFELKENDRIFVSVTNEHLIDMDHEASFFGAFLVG
Assay: phage ELISA

{"columns": ["binder", "binding result"],
 "data": [
  ["I051C04 (scFv, also called 1051C04) scFv: QVQLQQSGAEVKKPGSSVKVSCRTSGGTFSNYGLSWVRQAPGQGLEWMGGVIPISSTIKYGQKFQDRLTIAADDLTNTTFMELSSLRPEDTAVYYCARAATTSQKHNKYAYYFYGMDVWGQGTMVTVSSGGGGSGGGGSGGGGSAQSALTQPASVSGSPGQSITISCTGTSSDVGGYNYVSWYQQHPGKAPKLMIYEVSNRPSGVSNRFSGSKSGNTASLTISGLQAEDEADYYCSSYTSSSTLVFGGGTKVTVLG", "no binding"],
  ["I022E02 (scFv) scFv: QVQLVQSGAEVKKPGASVMVSCKASGYTFSTYAVHWVRQAPGQGLEWMGRINAGNGYTKYSQKFQGRVTITKDTSASAAYMELSSLGSEDTALYYCARATYDPLTGYSFDGLDIWGKGTMVTVSSGGGGSGGGGSGGGGSQSVLTQPASVSGSPGQSITISCTGTSSDVGGYNYVSWYQQHPGKAPKLMIYEGSKRPSGVSNRFSGSKSGNTASLTISGLQAEDEADYYCSSYTTRSTRVFGGGTKLTVLG", "no binding"],
  ["I075A02 (scFv) scFv: QVQLVQSGAEVKKPGSSVKVSCRASGGSFNHAISWVRQAPGRGLEWMGGILPMYGTANYAQKFQGRVTITADKLTNTVYMDLSRLRYEDTAVYYCARELGLSIVGATTGALDMWGRGTLVTVSSGGGGSGGGGSGGGGSAQSVVTQPPSASGTPGQRVTVSCSGGRSNIGSNTVSWYQQLPGTAPKLLIYSNDERPSGVPDRFSGSNSGTSASLAISGLQSEDEADYYCAAWDDSLNGVAFGGGTKLTVLG", "no binding"]
]}
